pIC50: −log10 of the molar value.
Please consider the recorded pIC50 for AChE (Homo sapiens, UniProt P22303) in what follows.

smiles_input	target_system	pIC50
CS(=O)(=O)n1cc(C=C(C(=O)N2CCC(Cc3ccccc3)CC2)c2ccc(Cl)cc2)c2ccccc21	AChE (Homo sapiens, UniProt P22303)	6.79 to 6.88
CS(=O)(=O)n1cc(/C=C(/C(=O)Nc2cccnc2)c2ccc(Cl)cc2)c2ccccc21	AChE (Homo sapiens, UniProt P22303)	6.79 to 6.88
CS(=O)(=O)n1cc(/C=C(\C(=O)N2CCCCC2)c2ccc(Cl)cc2)c2ccccc21	AChE (Homo sapiens, UniProt P22303)	6.79 to 6.88
